System tested: Mutant CD33-GFP M9 (Y49, 50A) on 293FT cells (UniProt P20138)
Sequence (P20138 other isoform, or with tags, fused parts or gaps mutant): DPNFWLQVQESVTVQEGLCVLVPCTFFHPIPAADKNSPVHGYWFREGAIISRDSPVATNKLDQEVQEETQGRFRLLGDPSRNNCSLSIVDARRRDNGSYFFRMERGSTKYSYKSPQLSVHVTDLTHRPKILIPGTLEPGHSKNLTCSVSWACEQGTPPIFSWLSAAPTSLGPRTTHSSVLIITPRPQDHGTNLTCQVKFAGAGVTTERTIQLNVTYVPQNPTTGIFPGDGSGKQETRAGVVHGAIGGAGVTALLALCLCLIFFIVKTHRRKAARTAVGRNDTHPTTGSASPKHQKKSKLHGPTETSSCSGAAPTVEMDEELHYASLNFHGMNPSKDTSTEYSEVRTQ
Assay text: FACS, mutant CD33-GFP on 293FT cells
Each item that follows carries a reported FACS binding data.
Quantity name: FACS binding data

Binder	Val
sdCD33_7 (VHH, sdAb from a naive llama phage library; also called 420; sdAb420) VHH: EVQLVESGGGLVQPGGSLRLSCVASGFTFKDYGMTWVRQAPGKALEWVSDINSAGDGIYYSDSVKGRFTISRDDSKGTLYLQMNSLTPEDTAIYYCAAERQRAGDVKRSLAPITAHIWGQGTQVTVSS	34.6
sdCD33_5 (VHH, sdAb from a naive llama phage library; also called 413; sdAb413) VHH: QVQLQESGGGLVQPGGSLRLSCAASGSVFSIYAMAWYRQAPGKQRELVAVITSGGATNYADSVKGRFTISRDIAKKTLYLQMNTLKPEDTAVYYCYAHLLIQPFDRFYDYWGQGTQVTVSS	0.79
